target: RmtA (Emericella nidulans, UniProt Q5VLE3); experiment: Inhibition of Aspergillus nidulans recombinant GST-RmtA expressed in BL21 cells
endpoint: IC50

In the examples that follow, each entry is paired with its recorded IC50.
{"columns": ["compound", "IC50"],
 "data": [
  ["O=C1NS(=O)(=O)c2ccccc21 [SACCHARIN]", "> 510 µM"],
  ["O=C1C=CC(=C(c2ccc(O)cc2)c2ccccc2S(=O)(=O)O)C=C1", "> 263 µM"]
]}

Let us move to another entry and its IC50.
Inquiry: So what does the record say about IC50 for O=C1NC(=O)C(=Nn2c(=O)[nH]c(=O)[nH]c2=O)C(=O)N1 ?
Reply text: > 164 µM
